assay.text: Human microsomal stability
measurement.parameters: human, liver microsomes, pH 7.4
Kind request: treat 20 µL/min/mg as inclusive, so microsomal CLint at 2 µM at 20 µL/min/mg or higher is t, anything lower is f.

INSERT INTO results (molecule, assigned_class) VALUES
  ('Cc1cc(-c2noc(C(F)(F)F)n2)ccc1O[C@@H]1CCN(c2cc(C(=O)N(C)C)no2)C1 [Compound 33]', 't'),
  ('CN(C)C(=O)c1cc(CCCn2ccc3cc(-c4noc(C(F)(F)F)n4)cnc32)on1 [Compound 29]', 't'),
  ('Cc1cc(-c2noc(C(F)(F)F)n2)ccc1OCCCc1cc(C(=O)N(C)C)no1 [Compound 2, CP-11526092, reference compound]', 'f'),
  ('Cc1cc(-c2noc(C(F)(F)F)n2)ccc1O[C@H]1CCN(c2cc(C(=O)N(C)C)no2)C1 [Compound 34]', 't');
